Molecular target: T1, human GFRα3 expressed with a C-terminal mFc tag (human)
T1 construct: also called hGFRα3-mFc
T1 chain: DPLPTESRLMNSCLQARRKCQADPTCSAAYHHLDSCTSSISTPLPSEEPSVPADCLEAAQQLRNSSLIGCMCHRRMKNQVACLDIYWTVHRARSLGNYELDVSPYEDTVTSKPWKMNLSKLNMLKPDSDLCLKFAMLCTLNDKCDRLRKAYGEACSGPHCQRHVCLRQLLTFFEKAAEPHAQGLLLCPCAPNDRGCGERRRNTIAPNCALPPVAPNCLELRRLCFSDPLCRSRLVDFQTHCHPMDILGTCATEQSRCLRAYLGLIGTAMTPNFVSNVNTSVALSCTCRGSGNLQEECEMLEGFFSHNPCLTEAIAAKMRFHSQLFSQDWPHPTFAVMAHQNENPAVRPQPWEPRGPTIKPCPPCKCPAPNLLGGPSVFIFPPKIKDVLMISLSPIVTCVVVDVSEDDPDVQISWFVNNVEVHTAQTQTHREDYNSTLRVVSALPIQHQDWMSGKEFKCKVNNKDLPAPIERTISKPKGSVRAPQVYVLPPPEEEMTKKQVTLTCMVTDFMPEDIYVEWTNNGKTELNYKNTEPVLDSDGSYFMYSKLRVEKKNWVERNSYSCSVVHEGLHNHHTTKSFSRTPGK
Assay: SPR, Ab captured, 37C
REPORTED_METRIC: Kd

1) H4H2294S (antibody, human IgG4, V domains shown, human IgG4 Fc (H4H)) VH: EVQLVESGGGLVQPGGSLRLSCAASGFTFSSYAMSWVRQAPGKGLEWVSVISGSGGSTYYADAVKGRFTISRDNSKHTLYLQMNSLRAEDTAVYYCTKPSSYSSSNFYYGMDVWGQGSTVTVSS VL: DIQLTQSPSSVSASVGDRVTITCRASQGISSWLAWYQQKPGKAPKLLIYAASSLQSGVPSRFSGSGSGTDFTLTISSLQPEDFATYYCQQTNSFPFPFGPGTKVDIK	0.0209 nM
2) H4H2293P (antibody, human IgG4, V domains shown, human IgG4 Fc (H4H)) VH: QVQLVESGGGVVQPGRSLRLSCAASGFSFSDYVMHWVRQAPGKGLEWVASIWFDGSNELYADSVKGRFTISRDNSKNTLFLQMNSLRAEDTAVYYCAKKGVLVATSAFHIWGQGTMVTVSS VL: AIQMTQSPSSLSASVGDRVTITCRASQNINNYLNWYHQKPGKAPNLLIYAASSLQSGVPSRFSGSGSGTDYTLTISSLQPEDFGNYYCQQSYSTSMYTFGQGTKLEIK	0.0299 nM
3) H4H2344S (antibody, human IgG4, V domains shown, human IgG4 Fc (H4H)) VH: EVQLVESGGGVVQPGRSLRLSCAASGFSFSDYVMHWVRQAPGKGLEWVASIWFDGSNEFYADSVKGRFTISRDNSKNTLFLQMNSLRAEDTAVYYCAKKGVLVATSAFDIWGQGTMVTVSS VL: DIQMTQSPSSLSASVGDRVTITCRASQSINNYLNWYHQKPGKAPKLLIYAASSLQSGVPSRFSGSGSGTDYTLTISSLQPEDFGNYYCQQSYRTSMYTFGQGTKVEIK	0.0891 nM
4) H4H2352S (antibody, human IgG4, V domains shown, human IgG4 Fc (H4H); also called H4H2352S-1) VH: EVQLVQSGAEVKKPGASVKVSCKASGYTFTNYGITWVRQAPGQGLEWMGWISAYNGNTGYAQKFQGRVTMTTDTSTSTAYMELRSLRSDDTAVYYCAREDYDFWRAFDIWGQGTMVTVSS VL: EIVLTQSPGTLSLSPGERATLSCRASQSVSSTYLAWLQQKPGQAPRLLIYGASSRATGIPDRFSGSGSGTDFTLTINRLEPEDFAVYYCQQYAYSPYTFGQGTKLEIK	0.0132 nM
5) H4H2291S (antibody, human IgG4, V domains shown, human IgG4 Fc (H4H)) VH: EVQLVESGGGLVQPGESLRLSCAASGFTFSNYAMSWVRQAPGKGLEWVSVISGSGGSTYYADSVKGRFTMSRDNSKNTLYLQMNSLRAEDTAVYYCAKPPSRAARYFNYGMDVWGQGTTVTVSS VL: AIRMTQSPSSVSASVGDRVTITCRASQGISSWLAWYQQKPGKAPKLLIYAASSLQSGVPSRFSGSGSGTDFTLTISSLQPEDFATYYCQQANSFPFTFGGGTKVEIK	0.0289 nM
6) H4H2295S (antibody, human IgG4, V domains shown, human IgG4 Fc (H4H)) VH: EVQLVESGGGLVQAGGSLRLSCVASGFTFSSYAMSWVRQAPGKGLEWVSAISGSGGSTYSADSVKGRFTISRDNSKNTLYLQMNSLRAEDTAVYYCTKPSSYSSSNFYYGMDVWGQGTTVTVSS VL: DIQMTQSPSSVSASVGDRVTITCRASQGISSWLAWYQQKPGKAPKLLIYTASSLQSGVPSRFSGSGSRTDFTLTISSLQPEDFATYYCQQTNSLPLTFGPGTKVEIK	0.0301 nM

Data origin, for the record: patent US20140056903A1
